Target: T1, CD32b (FcgRIIb) (Homo sapiens, UniProt P31994)
T1 sequence (P31994 43-310): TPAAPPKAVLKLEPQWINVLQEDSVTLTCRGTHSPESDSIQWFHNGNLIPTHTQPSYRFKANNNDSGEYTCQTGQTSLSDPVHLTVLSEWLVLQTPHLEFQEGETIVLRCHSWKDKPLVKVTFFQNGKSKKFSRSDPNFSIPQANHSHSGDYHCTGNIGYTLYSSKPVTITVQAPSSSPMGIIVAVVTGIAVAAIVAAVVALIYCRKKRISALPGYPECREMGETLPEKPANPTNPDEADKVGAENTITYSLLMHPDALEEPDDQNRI
Assay: SPR, antibody binding to anti-his Fab captured FcgR-his (% Rmax)
Conditions: 1 μM antibody
metric: % Rmax hCD32b (%)
Write the value in % as a bare number.

>  <molecule>
mAb10-IgG2.3G1-AY-V27 (protein, left off: another chain or arm of the molecule) constant: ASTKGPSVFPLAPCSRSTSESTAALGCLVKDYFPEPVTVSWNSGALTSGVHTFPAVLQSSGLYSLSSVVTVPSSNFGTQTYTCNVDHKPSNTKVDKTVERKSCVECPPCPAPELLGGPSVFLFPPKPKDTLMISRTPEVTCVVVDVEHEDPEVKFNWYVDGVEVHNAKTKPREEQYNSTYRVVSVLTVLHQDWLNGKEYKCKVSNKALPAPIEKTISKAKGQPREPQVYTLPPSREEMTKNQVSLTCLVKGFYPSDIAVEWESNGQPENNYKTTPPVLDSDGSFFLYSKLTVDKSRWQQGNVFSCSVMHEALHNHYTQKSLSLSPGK

>  <units>
%

>  <endpoint result>
40

$$$$

Here's the next entry for you.
## Task Quick one: % Rmax hCD32b of mAb7-IgG2.3G1-AY-V27 (protein, left off: another chain or arm of the molecule) constant: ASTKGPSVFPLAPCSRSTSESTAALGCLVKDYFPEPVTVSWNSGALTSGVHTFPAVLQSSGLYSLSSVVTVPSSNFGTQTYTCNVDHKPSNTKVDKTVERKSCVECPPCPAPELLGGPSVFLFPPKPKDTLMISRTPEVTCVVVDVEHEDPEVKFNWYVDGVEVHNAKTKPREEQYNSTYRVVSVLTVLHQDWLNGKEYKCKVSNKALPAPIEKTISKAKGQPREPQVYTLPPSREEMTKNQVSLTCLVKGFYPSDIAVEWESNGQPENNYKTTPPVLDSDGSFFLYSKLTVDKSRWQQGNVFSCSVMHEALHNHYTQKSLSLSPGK ?
## Result 76
